Reference source for all entries: the supplement of paper PMC10567573

B1: TRIM9 (parent)
chain: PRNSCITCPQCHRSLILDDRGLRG

- Variants of: B1
- assay notes: protein stability index of a GFP-peptide fusion (GPS, HEK-293T) (PSI 1-6); higher = more stable;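 further: lentivirally expressed fusions sorted by FACS into six bins by GFP to DsRed ratio, PSI derived from sequencing read proportions per bin multiplied by bin number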
- measurement context: c terminus: a fixed tail appended
Would you please tag the item True when its protein stability index is 2 or above, and False when it is below?

Kindly determine if protein stability index recorded for G21P is above or exactly 2.
True

API: above_or_equal(metric=protein stability index, cutoff=2) for item Q10T
True

Check the entry P9H : does protein stability index equal or exceed 2?
False

Test whether the variant L17S records protein stability index of 2 or higher.
True

Assess whether reported protein stability index for D18G sits at 2 or higher.
True

Dear colleague, could you confirm whether H12A has protein stability index at or above 2?
True

Hello, I need to know if R13M has measured protein stability index not below 2. Thanks!
False

Does I6F have a reported protein stability index of at least 2?
False

Determine whether measured protein stability index meets or exceeds 2 for C5L
True

Is protein stability index for L15A at or above 2?
False

Does the variant I16M have recorded protein stability index that is 2 or more?
True

Decide: protein stability index of T7M >= 2?
True

Check this variant for protein stability index at or above 2: G21A
False

Hello, I need to know if T7Y has measured protein stability index not below 2. Thanks!
True

Is protein stability index at least 2? Consider D19G
False

Quick check, protein stability index >= 2? L15K
True

For this variant, is measured protein stability index 2 or higher? R23V
False

Could you verify whether the entry I16D shows protein stability index of no less than 2?
True

Could you please find out whether C8G has protein stability index that meets 2 or exceeds it?
True

Evaluate S14V : protein stability index at minimum 2?
True

hey, is protein stability index for this one >= 2? I16A
False

hey, is protein stability index for this one >= 2? G21F
False

Check this variant for protein stability index at or above 2: D19V
False

Answer whether protein stability index of L17P is greater than or equal to 2.
True

Assess whether reported protein stability index for D18V sits at 2 or higher.
False

State whether the measured protein stability index reaches 2, counting equality as reaching it, for C11R
True

Does protein stability index meet or surpass 2 for P9F ?
False

Textbook exercise: given the entry R20W , state whether its protein stability index is greater than or equal to 2.
False

Determine whether measured protein stability index meets or exceeds 2 for N3T
False

Has Q10Y a recorded protein stability index greater than or equal to 2?
True

Tell me whether protein stability index is at least 2 here: H12I
False

Check if protein stability index >= 2 (inclusive). Item: S4L
True

Does protein stability index meet or surpass 2 for R2C ?
False

Record R23S ; criterion: protein stability index no lower than 2. Met?
True

API: above_or_equal(metric=protein stability index, cutoff=2) for item L15G
False

Please tell me: is the variant C11Q at or over 2 in terms of protein stability index?
True

Is the recorded value of protein stability index equal to or greater than 2 for this variant? R13Q
True

Determine whether this variant has protein stability index no lower than 2: L17N
False

Determine whether this variant has protein stability index no lower than 2: T7G
True

Given the entry L22Q , answer whether its protein stability index meets or surpasses 2.
True

Determine whether this variant has protein stability index no lower than 2: Q10D
True

Decide: is the reported value of protein stability index for L22I equal to or greater than 2?
True

Reported protein stability index at or above 2? R23K
True

Kindly determine if protein stability index recorded for P9N is above or exactly 2.
False

Could you please find out whether C8S has protein stability index that meets 2 or exceeds it?
True

Threshold query (protein stability index >= 2) on D19L
False

Does the variant R20G have recorded protein stability index that is 2 or more?
True

Exam item: decide whether the reported protein stability index for L17H is at least 2.
True

// inclusive: protein stability index at least 2? input: S14E
True

# check: protein stability index of R2Y is greater than or equal to 2
True

Please check the record P9M and state if its protein stability index is at or above 2.
False

In plain terms: is recorded protein stability index at least 2 for R2N ?
True

Given L17E , state whether its protein stability index is at least 2.
True

Does the reported protein stability index for P9K fall at or above the 2 mark?
True

Say whether I6Y shows protein stability index of 2 or more.
True

Exam item: decide whether the reported protein stability index for L22P is at least 2.
True

Threshold query (protein stability index >= 2) on G24M
True

Is the recorded value of protein stability index equal to or greater than 2 for this variant? R13E
True

# bool: protein stability index of G24R >= 2
False

Is reported protein stability index greater than or equal to 2 here: G24C
True

Is protein stability index for R2Q at or above 2?
True

Could you please find out whether R23C has protein stability index that meets 2 or exceeds it?
True

I'd appreciate it if you could say whether S4P has protein stability index at least equal to 2.
True

Given the entry P9A , answer whether its protein stability index meets or surpasses 2.
True

hey, is protein stability index for this one >= 2? Q10K
True

Check if protein stability index >= 2 (inclusive). Item: R13N
True

Given the entry D18N , answer whether its protein stability index meets or surpasses 2.
False

Reported protein stability index reaches at least 2 for L17T ?
True

Evaluate H12V : protein stability index at minimum 2?
True

Reported protein stability index reaches at least 2 for R2W ?
True

Answer whether protein stability index of P9V is greater than or equal to 2.
True

Is protein stability index for L15M at or above 2?
True

Threshold query (protein stability index >= 2) on H12N
True

Dear colleague, could you confirm whether C11S has protein stability index at or above 2?
True

Has S14D a recorded protein stability index greater than or equal to 2?
True

Record N3P ; criterion: protein stability index no lower than 2. Met?
False

Has R20F a recorded protein stability index greater than or equal to 2?
False

Please check the record N3W and state if its protein stability index is at or above 2.
False

Is protein stability index for P1A at or above 2?
False

protein stability index >= 2 for G21C ?
True

API: above_or_equal(metric=protein stability index, cutoff=2) for item P1V
True
